Test system: Endogenous Huntingtin Protein
assay-details: Endogenous Huntingtin Protein Assay (ELISA-based MSD electrochemiluminescence)
Assay type: cell-based
settings: Table 2; MSD plates coated with MW1 (expanded polyglutamine) or MAB2166 capture antibody; "inactive" = result above the detection limit of the assay
Experimental: Compounds of Formula (I) were tested using the Meso Scale Discovery (MSD) Assay provided in International Application No. PCT/US2016/066042, filed on Dec. 11, 2016 and claiming priority to U.S. Provisional Application 62/265,652 filed on Dec. 10, 2015, the entire contents of which are incorporated herein by reference. The Endogenous Huntingtin Protein assay used in Biological Example 1 was developed using the ELISA-based MSD electrochemiluminescence assay platform. […]
pIC50: −log10 of the molar value.
Parameter: pIC50. Scope: all listed entries.
property: pIC50

> print(dat)
                                    compound  test.result
 1  Oc1cc(-c2cn[nH]c2)ccc1-c1cnc(N2CCN3CCCC3C2)nn1 (centres unmarked)         7.04
 2  Cc1cnc(-c2ccc(-c3cnc(N4CCN[C@@H](C5CC5)C4)nn3)c(O)c2)o1         6.83
 3  CC[C@H]1CN(c2ncc(-c3ccc(-c4ncns4)cc3O)nn2)C[C@@H](C)N1 (single isomer, unassigned)         6.84
 4  Oc1cc(-c2ccsn2)ccc1-c1cnc(N2CCN[C@@H](C3CC3)C2)nn1         7.78
 5  Cc1cc(-c2cn[nH]c2)cc(O)c1-c1cnc(N2CCN[C@@H](C(C)C)C2)nn1         6.17
 6  CCCC1CN(c2ncc(-c3ccc(-c4cn[nH]c4)cc3O)nn2)CCN1 (centres unmarked)         7.46
 7  Cc1cn2cc(-c3ccc(-c4cnc(N5C[C@@H](C)N[C@@H](C)C5)nn4)c(O)c3)cc(F)c2n1         8.43
 8  C[C@@H]1CN(c2ncc(-c3ccc(-c4cn[nH]c4)cc3O)nn2)C[C@H](C(C)(C)C)N1         6.70
 9  Cc1cn2nc(-c3ccc(-c4cnc(N5CCN[C@H](C)C5)nn4)c(O)c3)cc(C)c2n1         7.99
10  CC(C)[C@H]1CN(c2ncc(-c3ccc(-c4cn[nH]c4)cc3O)nn2)C[C@@H](C)N1         7.74
11  COc1cc(-c2ccc(-c3cnc(N4CCN[C@@H](C5CC5)C4)nn3)c(O)c2)ccn1         7.73

---

System: Endogenous Huntingtin Protein
assay-details: Endogenous Huntingtin Protein Assay (ELISA-based MSD electrochemiluminescence)
Format: cell-based
settings: Table 2; MSD plates coated with MW1 (expanded polyglutamine) or MAB2166 capture antibody; "inactive" = result above the detection limit of the assay
Mark criterion met only for IC50 values smaller than 30 nM; exact matches and larger values are criterion not met.

> print(dat)
                                   compound                         target              class
1  Cc1cn2cc(-c3ccc(-c4cnc(N5C[C@@H](C)N[C@@H](C)C5)nn4)c(O)c3)cc(C#N)c2n1  Endogenous Huntingtin Protein      criterion met
2  Cc1ncc2cc(-c3ccc(-c4cnc(N5CCN[C@@H](C6CC6)C5)nn4)c(O)c3)ccn12  Endogenous Huntingtin Protein      criterion met
3  C[C@H]1CN(c2ncc(-c3ccc(-c4cn[nH]c4)cc3O)nn2)[C@@H](C)CN1  Endogenous Huntingtin Protein  criterion not met
4  CC(C)[C@@H]1CN(c2ncc(-c3ccc(-c4cn[nH]c4)cc3O)nn2)CCN1  Endogenous Huntingtin Protein  criterion not met
5  CCC1CN(c2ncc(-c3ccc(-c4cn[nH]c4)cc3O)nn2)CCN1 (stereo not shown)  Endogenous Huntingtin Protein      criterion met
6  CC(C)[C@H]1CN(c2ncc(-c3ccc(-c4ncccn4)cc3O)nn2)CCN1  Endogenous Huntingtin Protein  criterion not met

Measured values drawn from patent US20230234942A1 for this set.
